Values compiled from patent US20110201688A1.

Target: cortical neurons
Assay: Inhibition of [Ca2+]i increases evoked by chemical ischemia (sodium azide/glucose deprivation) in cortical neurons, Fura-2
Type: cell-based, rat
Conditions: 4 mM azide, 0 glucose, cortical neurons, n>50; read-out: Kd (Langmuir-Hill fit) for inhibition of [Ca2+]i increases evoked by chemical ischemia
measure: pKd
// scale note: pKd = -log10(conc_M); give the bare number

Write down the reported pKd of N=C(Nc1ccc(Br)cc1)Nc1ccc(Br)cc1 , test system: cortical neurons.
5.59
